read-out: Monokine induced gamma interferon (MIG), CXCL9 (gene 4283); assay: BSK_SAg_MIG: BioMAP Diversity Plus: SAg Assay for Monokine induced gamma interferon (MIG) Biomarker Activity (AID 2283092); settings: primary human HUVEC with PBMC; actives raise or lower the signal
Active and inactive are the calls of the source. The calls were made as follows: active = hit-call score of the fitted dose curve at least 0.9, where 1 is the maximum; inactive = score below 0.9.
Classes used: 1 for active, -1 for inactive

[
  {
    "MOLECULE": "OCC(F)(OC(F)(F)C(F)(OC(F)(F)C(F)(F)C(F)(F)F)C(F)(F)F)C(F)(F)F (stereo not drawn)",
    "LABEL": -1
  },
  {
    "MOLECULE": "CC1(C)[C@H](C=C(Cl)Cl)[C@H]1C(=O)OCc1cccc(Oc2ccccc2)c1",
    "LABEL": -1
  },
  {
    "MOLECULE": "CCCCN(CCO)CCO",
    "LABEL": -1
  },
  {
    "MOLECULE": "C=C(C)C(=O)OCCC(F)(F)C(F)(F)C(F)(F)C(F)(F)C(F)(F)C(F)(F)C(F)(F)C(F)(F)F",
    "LABEL": -1
  },
  {
    "MOLECULE": "CCCCOCCOCCO",
    "LABEL": -1
  },
  {
    "MOLECULE": "CC=CC(=O)C1=C(C)C=CCC1(C)C",
    "LABEL": -1
  },
  {
    "MOLECULE": "CCOC(=O)C=Cc1ccccc1",
    "LABEL": -1
  },
  {
    "MOLECULE": "CC1=CC(C)C(C=O)C(C)C1 (stereo not drawn) (tested in a mixture with another compound)",
    "LABEL": -1
  },
  {
    "MOLECULE": "CC(C)(CO)CO",
    "LABEL": -1
  },
  {
    "MOLECULE": "C[C@]12CC[C@@H]3c4ccc(O)cc4CC[C@H]3[C@@H]1CC[C@@H]2O",
    "LABEL": 1
  },
  {
    "MOLECULE": "CCCCCCCC1CCCC1=O (stereo not drawn)",
    "LABEL": -1
  },
  {
    "MOLECULE": "c1ccc(OCCOc2ccccc2)cc1",
    "LABEL": -1
  },
  {
    "MOLECULE": "COc1ccccc1NC(=O)CC(C)=O",
    "LABEL": -1
  },
  {
    "MOLECULE": "OCCN1CCOCC1",
    "LABEL": -1
  },
  {
    "MOLECULE": "O=C(O)C(F)(F)OC(F)(F)C(F)(F)OC(F)(F)C(F)(F)C(F)(F)C(F)(F)F",
    "LABEL": -1
  },
  {
    "MOLECULE": "CCCCCCCCCC(=O)OCC",
    "LABEL": -1
  },
  {
    "MOLECULE": "CC(C)Cc1ccc(C(C)C(=O)O)cc1 (stereo not drawn)",
    "LABEL": -1
  },
  {
    "MOLECULE": "CC(=O)OCC=C(C)CCC=C(C)CCC=C(C)C",
    "LABEL": -1
  },
  {
    "MOLECULE": "CC(C)(C)c1cccc(O)c1",
    "LABEL": -1
  },
  {
    "MOLECULE": "CCn1cc(C(=O)O)c(=O)c2ccc(C)nc21",
    "LABEL": -1
  },
  {
    "MOLECULE": "C=C(C)C(N)=O",
    "LABEL": -1
  },
  {
    "MOLECULE": "CCCCCCCCCCCCS",
    "LABEL": -1
  },
  {
    "MOLECULE": "c1ccc2c(c1)-c1ccc3ccc4cccc5cc-2c1c3c45",
    "LABEL": -1
  },
  {
    "MOLECULE": "CCC(=O)OCC=Cc1ccccc1",
    "LABEL": -1
  },
  {
    "MOLECULE": "C#C[C@]1(O)CC[C@H]2[C@@H]3CCc4cc(O)ccc4[C@H]3CC[C@@]21C",
    "LABEL": -1
  },
  {
    "MOLECULE": "CC(=O)CCC=C(C)CCC=C(C)C",
    "LABEL": -1
  },
  {
    "MOLECULE": "CC(=O)c1ccc(C)cc1",
    "LABEL": -1
  },
  {
    "MOLECULE": "COC(=O)c1ccc(C(=O)OC)cc1",
    "LABEL": -1
  }
]
